experiment: Discrete PK Dog; conditions: beagle, in vivo, iv, 0.5 mg/kg

smiles.repr: Cc1cc2ncccc2cc1Nc1ncc2c(n1)n([C@@H]1CNC[C@H]1F)c(=O)n2C
Vd: 5.4 L/kg

====

molecular target: Full length human DNAPK protein (Homo sapiens (Human), UniProt P78527); assay: DNAPK enzyme potency assay (DNA-PK enz), TR-FRET; format: biochemical; settings: arithmetic mean of two or more experiments; 18 μM ATP; read-out: DNA-PK enz pIC50 (converted)
result.type: IC50

smiles.repr: Cc1cnc2cc(C)c(Nc3ncc4c(n3)n(C3CCOCC3)c(=O)n4C)cc2n1
target.system: Full length human DNAPK protein (Homo sapiens (Human), UniProt P78527)
result.type: IC50
result: < 100 pM
--
smiles.repr: Cc1cc2nccc(C)c2cc1Nc1ncc2c(n1)n([C@H]1CC[C@H](O)CC1)c(=O)n2C
target.system: Full length human DNAPK protein (Homo sapiens (Human), UniProt P78527)
result.type: IC50
result: < 100 pM
--
smiles.repr: Cc1cc2nccnc2cc1Nc1ncc2c(n1)n([C@H]1CC[C@H](O)CC1)c(=O)n2C
target.system: Full length human DNAPK protein (Homo sapiens (Human), UniProt P78527)
result.type: IC50
result: < 100 pM
